Target: AURKA (human) (UniProt O14965)
Sequence (O14965 whole entry, looked up): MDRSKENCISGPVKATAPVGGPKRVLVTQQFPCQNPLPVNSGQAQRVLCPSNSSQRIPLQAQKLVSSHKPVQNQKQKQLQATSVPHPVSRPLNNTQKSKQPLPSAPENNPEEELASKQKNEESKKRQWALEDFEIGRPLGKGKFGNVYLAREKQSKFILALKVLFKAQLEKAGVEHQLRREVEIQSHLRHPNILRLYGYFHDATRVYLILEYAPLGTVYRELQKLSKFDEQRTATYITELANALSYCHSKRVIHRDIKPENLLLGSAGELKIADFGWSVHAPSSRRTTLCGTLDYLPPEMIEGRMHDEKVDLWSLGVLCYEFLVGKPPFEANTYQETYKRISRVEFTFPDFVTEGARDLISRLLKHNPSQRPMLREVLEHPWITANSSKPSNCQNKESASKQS
Assay: radiometric filter-binding kinase assay, Kinase HotSpot
Settings: compound 0.5 µM; ATP 10 µM
measurement.type: residual activity (%)
Report only the number, with the unit % understood.

Example entries begin here.
compound	residual activity [%]
CC(C)[C@H](CO)Nc1nc(Nc2cccc(Cl)c2)c2ncn(C(C)C)c2n1	80.6
O=c1cc(-c2cccc3c2Sc2ccccc2S3)oc(N2CCOCC2)c1	91.7
O=C1Nc2cc(Br)ccc2/C1=C1/Nc2ccccc2/C1=N\O	17.1

If you can, please state the reported residual activity value of CCN1/C(=C/C(C)=O)Sc2ccc(OC)cc21 . 108

If you can, please state the reported residual activity value of C#Cc1cccc(Nc2ncnc3cc(OCCOC)c(OCCOC)cc23)c1 . 75.3

If you can, please state the reported residual activity value of Clc1ccc(Nc2nnc(Cc3ccncc3)c3ccccc23)cc1 . 79

If you can, please state the reported residual activity value of CCCNC(=O)Nc1ccc(Oc2ncnc3cc(OC)c(OC)cc23)cc1Cl . 89.2

If you can, please state the reported residual activity value of NC(=O)c1ccc(N(C(N)=O)c2c(F)cccc2F)nc1-c1ccc(F)cc1F . 86.4

---

Biological target: CDK6 CCND1 (human) (UniProt Q00534+P24385)
Sequence (P24385 whole entry, looked up): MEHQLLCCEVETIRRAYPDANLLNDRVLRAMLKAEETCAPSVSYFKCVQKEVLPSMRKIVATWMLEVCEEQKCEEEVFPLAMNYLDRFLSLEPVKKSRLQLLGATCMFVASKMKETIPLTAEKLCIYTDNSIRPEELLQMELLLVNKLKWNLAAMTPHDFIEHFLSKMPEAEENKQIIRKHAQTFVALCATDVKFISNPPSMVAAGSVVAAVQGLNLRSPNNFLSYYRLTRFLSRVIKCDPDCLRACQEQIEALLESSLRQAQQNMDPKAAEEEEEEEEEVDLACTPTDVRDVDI
Sequence (Q00534 whole entry, looked up): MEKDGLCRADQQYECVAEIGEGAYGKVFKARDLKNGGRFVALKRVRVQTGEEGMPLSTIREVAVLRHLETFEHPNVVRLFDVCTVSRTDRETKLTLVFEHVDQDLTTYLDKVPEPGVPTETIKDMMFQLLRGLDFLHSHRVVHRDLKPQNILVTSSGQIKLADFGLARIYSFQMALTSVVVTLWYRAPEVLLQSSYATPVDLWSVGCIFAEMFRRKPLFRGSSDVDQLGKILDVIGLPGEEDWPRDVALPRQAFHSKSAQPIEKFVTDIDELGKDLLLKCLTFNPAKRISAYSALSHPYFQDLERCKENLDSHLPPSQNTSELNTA
Test: radiometric filter-binding kinase assay, Kinase HotSpot
Details: compound 0.5 µM; ATP 10 µM
measurement.type: residual activity (%)
Report only the number, with the unit % understood.

compound	scale.unit	residual activity
CC(C)(C)c1nc2c3ccc(F)cc3c3c(=O)[nH]ccc3c2[nH]1	%	87.7
COc1cc2nccc(Oc3ccc(NC(=S)NC(=O)c4ccccc4C)cc3)c2cc1OC	%	87.1
CC(C)n1cnc2c(Nc3cccc(Cl)c3)nc(NCCO)nc21	%	95.5
NC(=O)c1ccc(N(C(N)=O)c2c(F)cccc2F)nc1-c1ccc(F)cc1F	%	95.1
O=c1cc(-c2cccc3c2Sc2ccccc2S3)oc(N2CCOCC2)c1	%	98.1
Cc1ccc(NC(=O)c2ccc(CN3CCN(C)CC3)cc2)cc1Nc1nc(-c2cccnc2)cs1	%	98
O=C1Nc2cc(Br)ccc2/C1=C1/Nc2ccccc2/C1=N\O	%	35.9
Oc1ccc(-c2nc(-c3ccc(F)cc3)c(-c3ccncc3)[nH]2)cc1	%	97.6
CCOc1nc(NC(=O)Cc2cc(OC)ccc2OC)cc(N)c1C#N	%	95.2

If you can, please state the reported residual activity value of CSc1nc(-c2ccc(F)cc2)c(-c2ccnc(NC(C)c3ccccc3)c2)[nH]1 (stereo not given) . 90.9

---

Target: FLT3 (human) (UniProt P36888)
Sequence (P36888 whole entry, looked up): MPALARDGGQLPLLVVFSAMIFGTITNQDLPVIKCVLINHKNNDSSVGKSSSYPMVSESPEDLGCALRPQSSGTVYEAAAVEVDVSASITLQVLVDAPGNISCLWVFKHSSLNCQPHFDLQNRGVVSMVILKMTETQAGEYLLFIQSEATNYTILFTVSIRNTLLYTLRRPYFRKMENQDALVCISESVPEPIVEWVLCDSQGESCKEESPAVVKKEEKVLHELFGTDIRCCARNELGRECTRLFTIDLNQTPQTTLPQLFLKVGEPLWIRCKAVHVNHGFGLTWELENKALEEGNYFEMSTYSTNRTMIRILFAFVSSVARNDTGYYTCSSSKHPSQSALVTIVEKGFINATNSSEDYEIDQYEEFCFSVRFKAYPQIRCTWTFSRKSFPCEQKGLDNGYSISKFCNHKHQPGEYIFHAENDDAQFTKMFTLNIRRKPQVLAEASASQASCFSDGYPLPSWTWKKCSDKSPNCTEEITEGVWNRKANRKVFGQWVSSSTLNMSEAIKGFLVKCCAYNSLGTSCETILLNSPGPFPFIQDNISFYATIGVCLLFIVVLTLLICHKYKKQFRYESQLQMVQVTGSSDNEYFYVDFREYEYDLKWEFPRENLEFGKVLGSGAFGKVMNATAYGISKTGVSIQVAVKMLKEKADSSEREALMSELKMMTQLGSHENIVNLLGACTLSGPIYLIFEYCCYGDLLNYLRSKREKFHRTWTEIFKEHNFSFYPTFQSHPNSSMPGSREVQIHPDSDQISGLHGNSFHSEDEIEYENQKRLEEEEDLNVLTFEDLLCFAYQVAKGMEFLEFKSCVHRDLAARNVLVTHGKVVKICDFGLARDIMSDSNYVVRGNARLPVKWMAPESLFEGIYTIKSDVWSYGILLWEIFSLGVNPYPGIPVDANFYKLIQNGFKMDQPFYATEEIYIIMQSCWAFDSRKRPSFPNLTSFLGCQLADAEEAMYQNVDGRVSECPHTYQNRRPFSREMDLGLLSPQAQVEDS
Experiment: radiometric filter-binding kinase assay, Kinase HotSpot
Conditions: compound 0.5 µM; ATP 10 µM
Decide by residual activity: equal to or exceeding 40% means Condition met, less means Condition not met.

smiles.str	assigned.class
Cc1cc2ncc(-c3ccccc3)nc2cc1C	Condition met
Cc1ccc(NC(=O)c2ccc(CN3CCN(C)CC3)cc2)cc1Nc1nc(-c2cccnc2)cs1	Condition met

Check the entry Nc1nc(Nc2ccc(S(N)(=O)=O)cc2)nn1C(=O)c1c(F)cccc1F : does residual activity equal or exceed 40%? Condition met

Check the entry Oc1ccc(-c2nc(-c3ccc(F)cc3)c(-c3ccncc3)[nH]2)cc1 : does residual activity equal or exceed 40%? Condition met

Check the entry Clc1ccc(Nc2nnc(Cc3ccncc3)c3ccccc23)cc1 : does residual activity equal or exceed 40%? Condition met

Check the entry CC(C)[C@H](CO)Nc1nc(Nc2cccc(Cl)c2)c2ncn(C(C)C)c2n1 : does residual activity equal or exceed 40%? Condition not met

---

Target: CDK7 CCNH MNAT1 (human) (UniProt P50613+P51948+P51946)
Sequence (P50613 whole entry, looked up): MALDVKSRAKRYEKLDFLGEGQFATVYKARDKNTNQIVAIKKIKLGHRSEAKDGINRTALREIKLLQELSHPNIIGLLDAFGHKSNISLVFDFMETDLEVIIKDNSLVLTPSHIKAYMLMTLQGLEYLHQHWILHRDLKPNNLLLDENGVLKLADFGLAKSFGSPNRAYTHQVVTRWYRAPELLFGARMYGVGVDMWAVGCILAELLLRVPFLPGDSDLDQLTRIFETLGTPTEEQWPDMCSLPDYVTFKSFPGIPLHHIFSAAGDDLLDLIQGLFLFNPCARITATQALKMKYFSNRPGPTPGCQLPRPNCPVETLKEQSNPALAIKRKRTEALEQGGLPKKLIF
Sequence (P51946 whole entry, looked up): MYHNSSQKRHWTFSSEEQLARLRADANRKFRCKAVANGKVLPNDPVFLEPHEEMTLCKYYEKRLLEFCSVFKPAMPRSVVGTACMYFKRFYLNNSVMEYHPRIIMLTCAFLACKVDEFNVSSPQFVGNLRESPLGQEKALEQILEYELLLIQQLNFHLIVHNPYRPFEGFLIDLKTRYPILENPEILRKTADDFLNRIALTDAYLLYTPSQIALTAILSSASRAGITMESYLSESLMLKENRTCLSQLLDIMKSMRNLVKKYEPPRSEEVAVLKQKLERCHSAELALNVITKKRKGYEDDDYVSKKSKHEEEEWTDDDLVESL
Sequence (P51948 whole entry, looked up): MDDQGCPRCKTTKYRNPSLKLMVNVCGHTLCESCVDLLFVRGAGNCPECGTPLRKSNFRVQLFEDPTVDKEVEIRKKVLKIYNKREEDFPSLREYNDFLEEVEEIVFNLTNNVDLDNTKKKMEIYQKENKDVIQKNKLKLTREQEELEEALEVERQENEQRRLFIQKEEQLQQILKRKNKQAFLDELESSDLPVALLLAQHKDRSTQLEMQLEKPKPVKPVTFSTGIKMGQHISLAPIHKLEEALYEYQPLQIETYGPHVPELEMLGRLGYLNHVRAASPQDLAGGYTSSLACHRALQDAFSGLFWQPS
Assay: radiometric filter-binding kinase assay, Kinase HotSpot
Settings: compound 0.5 µM; ATP 10 µM
Items are presented alongside their recorded residual activity.
Report only the number, with the unit % understood.

Example entries begin here.
compound	residual activity, %
Oc1ccc(-c2nc(-c3ccc(F)cc3)c(-c3ccncc3)[nH]2)cc1	99.4
Cc1cc(Nc2cc(N3CCN(C)CC3)nc(Sc3ccc(NC(=O)C4CC4)cc3)n2)[nH]n1	101
CC(C)n1cnc2c(Nc3cccc(Cl)c3)nc(NCCO)nc21	78.5
CCN1/C(=C/C(C)=O)Sc2ccc(OC)cc21	94.8

If you can, please state the reported residual activity value of NC(=O)c1ccc(-c2nc(-c3ccccn3)c(-c3ccc4c(c3)OCCO4)[nH]2)cc1 . 97.6

If you can, please state the reported residual activity value of Cc1cc2ncc(-c3ccccc3)nc2cc1C . 98.5

If you can, please state the reported residual activity value of O=c1cc(-c2cccc3c2Sc2ccccc2S3)oc(N2CCOCC2)c1 . 96.5

If you can, please state the reported residual activity value of C#Cc1cccc(Nc2ncnc3cc(OCCOC)c(OCCOC)cc23)c1 . 107

If you can, please state the reported residual activity value of Nc1nc(Nc2ccc(S(N)(=O)=O)cc2)nn1C(=O)c1c(F)cccc1F . 81.1

If you can, please state the reported residual activity value of Nc1nc(Nc2ccc(S(N)(=O)=O)cc2)nn1C(=S)Nc1c(F)cccc1F . 43.6

If you can, please state the reported residual activity value of Cc1ccc(NC(=O)c2ccc(CN3CCN(C)CC3)cc2)cc1Nc1nc(-c2cccnc2)cs1 . 110

If you can, please state the reported residual activity value of O=C1Cc2c([nH]c3ccc([N+](=O)[O-])cc23)-c2ccccc2N1 . 99.9

---

Biological target: NEK9 (human)
Assay: radiometric filter-binding kinase assay, Kinase HotSpot
Settings: compound 0.5 µM; ATP 10 µM
measurement.type: residual activity

smiles.str	measurement.type	experimental.value
CC(C)[C@H](CO)Nc1nc(Nc2cccc(Cl)c2)c2ncn(C(C)C)c2n1	residual activity	93.1%
O=C1Cc2c([nH]c3ccc([N+](=O)[O-])cc23)-c2ccccc2N1	residual activity	99.3%
O=C1Nc2cc(Br)ccc2/C1=C1/Nc2ccccc2/C1=N\O	residual activity	96.3%
Cc1ccc(NC(=O)c2ccc(CN3CCN(C)CC3)cc2)cc1Nc1nc(-c2cccnc2)cs1	residual activity	98.6%

For the record O=C(Nc1ccc(Cl)cc1)c1ccccc1NCc1ccncc1 , what value of residual activity is listed for NEK9 (human)? 91.2%

For the record O=c1cc(N2CCNCC2)oc2c(-c3ccccc3)cccc12 , what value of residual activity is listed for NEK9 (human)? 102%

---

Items are presented alongside their recorded residual activity.
Target: MAP3K9 (human) (UniProt P80192)
Sequence (P80192 whole entry, looked up): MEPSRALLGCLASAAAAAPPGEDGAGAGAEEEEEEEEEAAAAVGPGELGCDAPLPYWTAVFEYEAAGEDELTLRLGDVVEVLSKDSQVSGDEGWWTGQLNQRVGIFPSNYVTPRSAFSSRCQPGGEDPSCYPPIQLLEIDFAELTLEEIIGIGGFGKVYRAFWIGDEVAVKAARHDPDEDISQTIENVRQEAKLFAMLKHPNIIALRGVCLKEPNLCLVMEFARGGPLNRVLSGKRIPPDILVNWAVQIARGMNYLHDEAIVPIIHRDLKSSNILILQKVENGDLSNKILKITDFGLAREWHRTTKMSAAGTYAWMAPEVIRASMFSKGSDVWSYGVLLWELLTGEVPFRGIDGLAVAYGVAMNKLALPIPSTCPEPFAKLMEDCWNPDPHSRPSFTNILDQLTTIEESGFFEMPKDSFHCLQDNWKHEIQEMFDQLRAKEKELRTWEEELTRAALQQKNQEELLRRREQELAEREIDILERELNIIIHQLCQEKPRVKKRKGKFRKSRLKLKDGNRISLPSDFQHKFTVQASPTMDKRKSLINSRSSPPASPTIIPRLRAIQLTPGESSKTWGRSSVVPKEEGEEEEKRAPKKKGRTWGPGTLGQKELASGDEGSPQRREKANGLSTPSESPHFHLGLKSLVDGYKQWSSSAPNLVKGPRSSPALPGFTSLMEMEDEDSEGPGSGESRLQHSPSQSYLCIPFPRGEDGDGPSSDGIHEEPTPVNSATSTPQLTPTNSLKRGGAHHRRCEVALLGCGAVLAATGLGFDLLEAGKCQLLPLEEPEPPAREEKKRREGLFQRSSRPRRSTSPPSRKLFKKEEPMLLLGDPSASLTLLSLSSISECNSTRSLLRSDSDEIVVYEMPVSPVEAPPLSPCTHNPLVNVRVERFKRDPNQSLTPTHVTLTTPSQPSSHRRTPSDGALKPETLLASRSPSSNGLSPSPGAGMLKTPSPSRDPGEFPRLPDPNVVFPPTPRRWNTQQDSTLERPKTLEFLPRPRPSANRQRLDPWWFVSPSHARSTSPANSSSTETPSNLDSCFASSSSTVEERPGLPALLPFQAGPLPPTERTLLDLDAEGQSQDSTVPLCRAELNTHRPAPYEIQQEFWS
Test: radiometric filter-binding kinase assay, Kinase HotSpot
Details: compound 0.5 µM; ATP 10 µM
Report only the number, with the unit % understood.

Example entries begin here.
compound	residual activity (%)
Nc1n[nH]c2nnc(-c3c(-c4ccccc4)nn4ccccc34)cc12	99.9
CC(C)[C@H](CO)Nc1nc(Nc2cccc(Cl)c2)c2ncn(C(C)C)c2n1	37.8
Nc1nc(Nc2ccc(S(N)(=O)=O)cc2)nn1C(=O)c1c(F)cccc1F	25.6
O=c1cc(N2CCNCC2)oc2c(-c3ccccc3)cccc12	101

If you can, please state the reported residual activity value of O=C(NC(NC(=S)Nc1ccc(F)c([N+](=O)[O-])c1)C(Cl)(Cl)Cl)C(c1ccccc1)c1ccccc1 (stereo not given) . 94

If you can, please state the reported residual activity value of O=C1Nc2ccccc2/C1=C\c1c(Cl)[nH]c2ccccc12 . 97.9

If you can, please state the reported residual activity value of CCCNC(=O)Nc1ccc(Oc2ncnc3cc(OC)c(OC)cc23)cc1Cl . 88.9

If you can, please state the reported residual activity value of O=c1cc(-c2cccc3c2Sc2ccccc2S3)oc(N2CCOCC2)c1 . 95.5

If you can, please state the reported residual activity value of O=C(Nc1ccc(Cl)cc1)c1ccccc1NCc1ccncc1 . 89

---

Target: UniProt:Q15418
Sequence (Q15418 whole entry, looked up): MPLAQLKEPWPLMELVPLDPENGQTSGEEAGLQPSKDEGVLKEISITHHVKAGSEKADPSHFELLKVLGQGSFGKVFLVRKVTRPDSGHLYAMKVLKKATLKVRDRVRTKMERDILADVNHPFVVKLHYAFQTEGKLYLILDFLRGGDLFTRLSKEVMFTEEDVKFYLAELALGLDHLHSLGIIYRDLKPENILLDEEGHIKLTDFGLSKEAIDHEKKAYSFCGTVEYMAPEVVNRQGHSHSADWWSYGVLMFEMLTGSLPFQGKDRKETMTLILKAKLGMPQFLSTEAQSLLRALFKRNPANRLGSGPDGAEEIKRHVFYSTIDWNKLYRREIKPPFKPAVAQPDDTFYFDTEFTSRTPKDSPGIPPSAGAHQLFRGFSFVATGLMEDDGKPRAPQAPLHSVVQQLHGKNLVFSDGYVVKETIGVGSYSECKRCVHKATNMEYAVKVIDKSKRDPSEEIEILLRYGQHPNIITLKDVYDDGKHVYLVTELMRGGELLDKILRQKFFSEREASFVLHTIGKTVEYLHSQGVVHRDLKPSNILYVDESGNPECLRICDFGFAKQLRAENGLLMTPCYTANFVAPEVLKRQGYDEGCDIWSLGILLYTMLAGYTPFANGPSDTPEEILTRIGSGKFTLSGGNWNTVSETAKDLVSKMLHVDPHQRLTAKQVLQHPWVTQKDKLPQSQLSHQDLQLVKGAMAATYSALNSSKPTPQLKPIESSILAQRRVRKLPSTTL
Test: radiometric filter-binding kinase assay, Kinase HotSpot
Conditions: compound 0.5 µM; ATP 10 µM
Items are presented alongside their recorded residual activity.
Report only the number, with the unit % understood.

compound	residual activity, %
O=C(Nc1ccc(Cl)cc1)c1ccccc1NCc1ccncc1	92
O=C1Nc2cc(Br)ccc2/C1=C1/Nc2ccccc2/C1=N\O	47.2
CCCNC(=O)Nc1ccc(Oc2ncnc3cc(OC)c(OC)cc23)cc1Cl	92.3
CS(=O)c1ccc(-c2nc(-c3ccc(F)cc3)c(-c3ccncc3)[nH]2)cc1 (stereo unspecified)	99.9
COc1cc2ncnc(Nc3ccc(F)c(Cl)c3)c2cc1OCCCN1CCOCC1	97.3
CSc1nc(-c2ccc(F)cc2)c(-c2ccnc(NC(C)c3ccccc3)c2)[nH]1 (stereo unspecified)	99.4

If you can, please state the reported residual activity value of Nc1n[nH]c2nnc(-c3c(-c4ccccc4)nn4ccccc34)cc12 . 95.1

If you can, please state the reported residual activity value of O=C1Nc2ccccc2/C1=C\c1c(Cl)[nH]c2ccccc12 . 105

If you can, please state the reported residual activity value of COc1cc2nccc(Oc3ccc(NC(=S)NC(=O)c4ccccc4C)cc3)c2cc1OC . 97.3

If you can, please state the reported residual activity value of Nc1nc(Nc2ccc(S(N)(=O)=O)cc2)nn1C(=S)Nc1c(F)cccc1F . 5.34

If you can, please state the reported residual activity value of Cc1ccc(NC(=O)c2ccc(CN3CCN(C)CC3)cc2)cc1Nc1nc(-c2cccnc2)cs1 . 97.2
